- test_details: Quantitative High-Throughput drug screen in 47 multiple myeloma cell lines against the NCATS MIPE library collection: JIM3_ECACC cell viability assay (AID 1918963; further: nearly all actives have a fitted effect of over 35% in size)
- experimental_parameters: JIM3 myeloma viability, CellTiter-Glo ATP, 48 h; series mostly up to 45.8 µM
- Description: PI: Beverly A. Mock Ph.D. Laboratory of Cancer Biology and Genetics, Center for Cancer Research, National Cancer Institute, National Institute of Health, Bethesda, Maryland […] 5; Detector; 425V; Luminescence; Viewlux PerkinElmer. […] 1. […] Briefly, the corresponding myeloma cell lines were screened in 1,536-well plates with 500 cells, 5-uL per well for inhibition of cell viability (assessed by measuring ATP levels with CellTiterGlo). […]
Inconclusive results are not listed. The source made the active and inactive calls. The call rests on the fitted dose curve; in most records, active means well fitted cell-killing curve with a large enough effect; inconclusive means small, poorly fitted or top-dose-only effect; inactive means no such curve, though single readings can be large or run the other way.
Labels: true (1) for active, false (0) for inactive

| molecule | class_label |
| --- | --- |
| CC(C)C[C@H](NC(=O)c1cc2ccccc2s1)C(=O)N1CCN(C(=O)[C@H](CO)NS(=O)(=O)c2ccc(Cl)cc2Cl)CC1 | true (1) |
| CN1[C@H]2CC[C@H]1CC(OC(=O)c1c[nH]c3ccccc13)C2 (some centres undefined) | false (0) |
| N#CC(=C1Nc2ccccc2S1)c1ccnc(OCc2ccc(CN3CCOCC3)cc2)n1 | true (1) |
| CC(C)(O)CC(=O)NCCn1ccc2ncnc(Nc3ccc(Oc4cccc(C(F)(F)F)c4)c(Cl)c3)c21 | true (1) |
| C=CCc1cccc(C=NNC(=O)CN2CCN(Cc3ccccc3)CC2)c1O | true (1) |
| Cn1cc(-c2ccc3nnc(Sc4ccc5ncccc5c4)n3n2)cn1 | false (0) |
| COc1ccc2cc1Oc1ccc(cc1)C[C@H]1c3cc(c(OC)cc3CCN1C)Oc1c(OC)c(OC)cc3c1[C@H](C2)N(C)CC3 | true (1) |
| CN(C)CCOc1cc(-c2cn[nH]c2)ccc1NC(=O)C1COc2ccccc2O1 (centres undefined) | true (1) |
| OCCn1cc(-c2ccc3c(c2)CCC3=NO)c(-c2ccncc2)n1 | false (0) |

====

- test_details: Quantitative High-Throughput drug screen in 47 multiple myeloma cell lines against the NCATS MIPE library collection: JIM1_ECACC cell viability assay (AID 1918964; further: potency means the concentration at half of the fitted maximal effect)
- experimental_parameters: JIM1 myeloma viability, CellTiter-Glo ATP luminescence, 48 h; series mostly up to 45.8 µM
Inconclusive results are not listed. The source made the active and inactive calls. The call rests on the fitted dose curve; in most records, active means well fitted cell-killing curve with a large enough effect; inconclusive means small, poorly fitted or top-dose-only effect, or effect the other way; inactive means no such curve, though single readings can be large or run the other way.

| compound | Potency |
| --- | --- |
| CCCCCOC(=O)Nc1nc(=O)n([C@@H]2O[C@H](C)[C@@H](O)C2O)cc1F (stereo not given in full) | inactive |
| CN(C)CC[C@H](CSc1ccccc1)Nc1ccc(S(=O)(=O)NC(=O)c2ccc(N3CCN(Cc4ccccc4-c4ccc(Cl)cc4)CC3)cc2)cc1[N+](=O)[O-] | 1480 nM (active) |
| CCCCn1c(=O)n(Cc2ccccc2F)c(=O)c2[nH]c(Cc3ccc(NC(C)=O)cc3)nc21 | 4.2 nM (active) |
| CN1c2ccccc2C(=O)N2CCc3c([nH]c4ccccc34)C21 (stereo not given) | inactive |
| Clc1ccc(COC(Cn2ccnc2)c2ccc(Cl)cc2Cl)c(Cl)c1 (stereo not given) | 26400 nM (active) |

====

- test_details: qHTS Screen of the MIPE 4.0 Collection Against Ewings Sarcoma (RDES) (AID 1259252); further: nearly all actives have a fitted effect of over 35% in size
- experimental_parameters: RD-ES Ewing sarcoma viability, CellTiter-Glo, 48 h; series mostly up to 45.8 µM
- Protocol: There is a large unmet medical need for treatments for Ewing sarcoma, a pediatric sarcoma. […] Using the NCATS developed oncology compound library called the Mechanism of Interrogation Plate (MIPE), four Ewing sarcoma cell lines were evaluated (TC32, TC71, RDES, EW8). Compounds, in a 12-point titration series, were incubated with cells for 48 hours and the read out was cell viability (CellTiter-Glo from Promega). […]
Inconclusive results are not listed. Activity calls are given as the source filed them. Calls come from the whole dose curve; as a rule, active = well fitted inhibition curve with a large enough effect; inconclusive = small, poorly fitted or top-dose-only effect; inactive = no such curve, though single readings can be large or run the other way.
Labels: active, inactive

| molecule | class_label |
| --- | --- |
| COc1ccc(CCN(C)CCCOc2ccc(S(=O)(=O)c3[nH]c4ccccc4c3C(C)C)cc2)cc1OC | inactive |
| COc1ccc(-c2nc3ccc(C4=NNC(=O)CC4C)cc3[nH]2)cc1 (stereo not drawn) | inactive |
| CC1(C)[C@H]2CC[C@]3(C)[C@@H](C(=O)C=C4[C@@H]5C[C@@](C)(C(=O)O)CC[C@]5(C)CC[C@]43C)[C@@]2(C)CC[C@@H]1O | inactive |
| O=C(O)CCC=CCC[C@@H]1[C@H](N2CCCCC2)[C@@H](O)C[C@@H]1OCc1ccc(-c2ccccc2)cc1 | inactive |
| C[C@H]1O[C@@H](n2cc(F)c(=O)[nH]c2=O)[C@H](O)[C@H]1O | active |
| Cc1cnc(CNC(=O)c2c(=O)c3ccc(N4CCCN(C)CC4)nc3n3c2sc2ccccc23)cn1 | active |
| CC(C)C[C@@H](C(=O)N[C@H](C(=O)OC1CCCC1)c1ccccc1)[C@H](O)C(=O)NO | active |
| OCCn1cc(-c2ccc3c(c2)CCC3=NO)c(-c2ccncc2)n1 | active |
| CC[C@H](C)C(=O)O[C@H]1C[C@H](O)C=C2C=C[C@H](C)[C@H](CC[C@@H](O)C[C@@H](O)CC(=O)O)[C@H]21 | inactive |
| C=CC[N+]1([C@H]2C[C@H]3[C@@H]4CC[C@H]5C[C@H](O)[C@@H](N6CCOCC6)C[C@]5(C)[C@@H]4CC[C@]3(C)[C@H]2OC(C)=O)CCCC1 | inactive |
| O=C(Nc1cccc2c(=O)cc(-c3nn[nH]n3)oc12)c1ccc(OCCCCc2ccccc2)cc1 | active |
| CCOC(=O)[C@H]1O[C@H]1C(=O)N[C@@H](CC(C)C)C(=O)NCCC(C)C | inactive |
| CCN1CCN(c2ccc(Nc3cc(N(C)C(=O)Nc4c(Cl)c(OC)cc(OC)c4Cl)ncn3)cc2)CC1 | inactive |
| CN(C)c1ccccc1CN1CCCN(Cc2ccccc2N(C)C)C1c1ccncc1 | active |
| O=C(CC12CC3CC(CC(C3)C1)C2)Nc1cccc2nc(NCCNCCO)ccc12 | active |
| CC(C)(O)CC(=O)NCCn1ccc2ncnc(Nc3ccc(Oc4cccc(C(F)(F)F)c4)c(Cl)c3)c21 | active |
| CN[C@@H](C)[C@H]1[C@H](O)C[C@@]2(C)[C@@H]3CC[C@H]4C(C)(C)[C@@H](NC)CC[C@@]45C[C@@]35CC[C@]12C | inactive |
| O=C1C(CCC(O)c2ccc(F)cc2)C(c2ccc(O)cc2)N1c1ccc(F)cc1 (stereo not drawn) | inactive |
| CN(C)N=Nc1nc[nH]c1C(N)=O | active |
| Clc1ccc(C2(c3ccc(-c4cn[nH]c4)cc3)CCNCC2)cc1 | active |
| CC(C)(F)C[C@H](N[C@@H](c1ccc(-c2ccc(S(C)(=O)=O)cc2)cc1)C(F)(F)F)C(=O)NC1(C#N)CC1 | active |
| CN(C)CCOc1cc(-c2cn[nH]c2)ccc1NC(=O)C1COc2ccccc2O1 (stereo not drawn) | active |
| O[C@@H](COc1cccc2ncccc12)CN1CCN(C2c3ccccc3[C@@H]3[C@H](c4ccccc42)C3(F)F)CC1 (stereo partly drawn) | active |
| CCCCn1c(=O)n(Cc2ccccc2F)c(=O)c2[nH]c(Cc3ccc(NC(C)=O)cc3)nc21 | inactive |
| COC(=O)[C@H](c1ccccc1Cl)N1CCc2sccc2C1 | inactive |
| CC=C(C(=CC)c1ccc(O)cc1)c1ccc(O)cc1 | active |
| CCNC(=O)[C@H]1O[C@@H](n2cnc3c(N)nc(NCCc4ccc(CCC(=O)O)cc4)nc32)[C@H](O)[C@H]1O | inactive |
| CCn1c(-c2nonc2N)nc2cncc(CNC3CCNCC3)c21 | active |
| CO[C@H]1/C=C\O[C@@]2(C)Oc3c(C)c(O)c4c(O)c(c5c(nc6cc(C)ccn65)c4c3C2=O)NC(=O)C(C)=CC=C[C@H](C)[C@H](O)[C@@H](C)[C@@H](O)[C@@H](C)[C@H](OC(C)=O)[C@H]1C | inactive |
| CC[C@H]1OC(=O)[C@H](C)[C@@H](O[C@H]2C[C@@](C)(OC)[C@@H](O)[C@H](C)O2)[C@H](C)[C@@H](O[C@@H]2O[C@H](C)C[C@H](N(C)C)[C@H]2O)[C@](C)(O)C[C@H](C)C(=NOCOCCOC)[C@H](C)[C@@H](O)[C@]1(C)O | inactive |
| O=C(Nc1ncc(SCCN2CCCC2)s1)[C@]1(c2ccc(S(=O)(=O)C3CC3)cc2)C[C@@H]1C1CCCCC1 | active |
| c1cc(OCCN2CCCCC2)cc(-c2n[nH]c3ccc(-c4ncn[nH]4)cc23)c1 | active |
| Cc1ccc(NC(=O)c2cccc(N(C)C)c2)cc1NC(=O)c1ccc(O)cc1 | active |
